assay: qHTS assay to identify small molecule antagonists of the retinoid-related orphan receptor gamma (ROR-gamma) signaling pathway - cell viability counter screen (AID 1159520); details: Tet-on RORgamma CHO cells viability, ATP luminescence, 16 h; series mostly up to 92.4 µM; also: nearly all actives have a fitted effect of over 50% in size
Records with an inconclusive call do not appear. Active and inactive are the calls of the source. Calls follow the shape of the dose curve; as a rule, active = well fitted cell-killing curve with a large enough effect in the repeat runs; inconclusive = weak or mixed curves, or effect the other way; inactive = no such curve, though single readings can be large or run the other way.

| compound | activity, negative = cytotoxicity |
| --- | --- |
| COc1nc(N)nc2c1ncn2[C@@H]1O[C@H](CO)[C@@H](O)[C@@H]1O | inactive |
| CC(=O)OCC(CCn1cnc2cnc(N)nc21)COC(C)=O | inactive |
| CCn1ccnc1CC1COc2ccccc2O1 (configuration not stated) | inactive |
| CN(C(=O)c1c(O)c2ccccc2n(C)c1=O)c1ccccc1 | inactive |
| CN1CCC(=C2c3ccccc3CC(=O)c3sccc32)CC1 | inactive |
| O=C(O)c1ccccc1OP(=O)(O)O | inactive |
| Cn1c(N)c(N=O)c(=O)n(C)c1=O | inactive |

Measured values drawn from PubChem BioAssay (Tox21) for this set.
